Organism: Canis familiaris
Experiment: Percent change from control in the functional refractory period (FRP) at 10 uM conc. on Canine ventricular muscle fibre.
Set-up: species or system Canis lupus familiaris, Muscle tissue
// NB: equality with 5% counts as criterion not met; only FRP strictly below is criterion met

Req: Regarding CCN(CC)CCCNC(=O)c1c(O)cc(C)nc1C , kindly confirm whether its FRP is beneath 5%.
Resp: criterion not met

Req: Now give it for CCN(CC)CCNC(=O)c1cc2cccc(OCc3ccccc3)c2[nH]1 too.
Resp: criterion met

Req: Now give it for CCN(CC)CCCNC(=O)c1cc2cccc(O)c2[nH]1 too.
Resp: criterion not met

Req: Now give it for CCN(CC)CCNC(=O)c1c(O)cc(C)nc1C too.
Resp: criterion not met

Req: Now give it for CCN(CC)CCNC(=O)c1cc(Cl)c(N)cc1OC [METOCLOPRAMIDE] too.
Resp: criterion not met

Req: Now give it for CCN(CC)CCNC(=O)c1cc2ccccc2[nH]1 too.
Resp: criterion not met

Req: Now give it for CCN(CC)CCNC(=O)c1c(C)[nH]c(C)c1C too.
Resp: criterion met

Source: ChEMBL document CHEMBL1124429
